Tested Target: human MASP-2 (in normal human serum) (human, UniProt O00187 16-686)
Sequence (O00187 16-686 limits assumed): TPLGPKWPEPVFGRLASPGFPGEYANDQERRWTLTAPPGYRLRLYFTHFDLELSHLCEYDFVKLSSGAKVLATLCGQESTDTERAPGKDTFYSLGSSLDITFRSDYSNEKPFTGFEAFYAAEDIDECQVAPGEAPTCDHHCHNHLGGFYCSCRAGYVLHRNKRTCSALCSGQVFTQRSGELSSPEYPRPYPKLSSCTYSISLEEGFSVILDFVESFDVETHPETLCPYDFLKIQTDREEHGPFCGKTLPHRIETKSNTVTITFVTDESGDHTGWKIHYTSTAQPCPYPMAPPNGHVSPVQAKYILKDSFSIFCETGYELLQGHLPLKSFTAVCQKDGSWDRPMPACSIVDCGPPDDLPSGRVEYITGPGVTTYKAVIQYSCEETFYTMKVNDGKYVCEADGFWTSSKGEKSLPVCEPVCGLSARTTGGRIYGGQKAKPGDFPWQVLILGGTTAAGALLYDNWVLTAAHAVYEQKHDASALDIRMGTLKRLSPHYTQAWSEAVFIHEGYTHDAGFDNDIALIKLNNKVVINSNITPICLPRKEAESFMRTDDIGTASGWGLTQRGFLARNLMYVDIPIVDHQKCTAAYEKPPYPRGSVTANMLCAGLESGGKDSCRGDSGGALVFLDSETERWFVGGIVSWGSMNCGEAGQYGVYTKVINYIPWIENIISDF
Assay Info: cell-based or functional assay
Where no end group is shown, it is not given here.
Measurement Name: Relative potency, lectin pathway, human serum (fold vs EVO2)

binder="EVO21b (designed binder, not fully specified; cysteine pairing not given here) KPDFCFLEEDPGPCRALKRRYFYNNQTKQCERFGYGGCLGNMNNFVTLEECKNICEDG" measured=31.9
binder="EVO21d (designed binder, not fully specified; cysteine pairing not given here) KPDFCFLEEDPGPCRALKRRYFYNNQTKQCERFSYGGCFGNMNNFVTLEECKNICEDG" measured=16.6
binder="EVO2d (designed binder, not fully specified; cysteine pairing not given here, Modified TFPI-D2 Kunitz domain; made as m1) KPDFCFLEEDPGPCRALKRRYFYNNQTKQCERFKYGGCLGNMNNFETLEECKNICEDG" measured=2.3
binder="EVO215 (designed binder, not fully specified; ends and bridges not checked, Modified TFPI-D2 Kunitz domain; made as m1) KPDFCFLENDPGWCRAAKRRYFYNNQTKQCERFGYGGCLGNMNNFVTLEECKNICEDG" measured=6.1
binder="EVO21a (designed binder, not fully specified; cysteine pairing not given here, Modified TFPI-D2 Kunitz domain; made as m1) KPDFCFLENDPGPCRAVKRRYFYNNQTKQCERFGYGGCLGNMNNFVTLEECKNICEDG" measured=6.5
binder="EVO213 (designed binder, Modified TFPI-D2 Kunitz domain; made as m1) KPDFCFLENDPGPCRAAKRRYFYNNQTKQCERFGYGGCLGNMNNFVTLEECKNICEDG" measured=4.9
binder="EVO25 (designed binder, not fully specified; cysteine pairing not given here, Modified TFPI-D2 Kunitz domain; made as m1) KPDFCFLENDPGPCRALKRRYFYNNQTKQCERFYYGGCFGNMNNFETLEECKNICEDG" measured=24.5
binder="EVO216 (designed binder, not fully specified; cysteine pairing not given here, Modified TFPI-D2 Kunitz domain; made as m1) KPDFCFLENDPGWCRAAKLRYFYNNQTKQCERFGYGGCLGNMNNFVTLEECKNICEDG" measured=4.5

Data origin: patent US20260098080A1
